OUTCOME_MEASURE: melting point (°C)

> print(dat)
                                        smi  outcome.measure  result.value
1  CCOC(=O)N1Cc2sc3ncn(CCCN4CCN(c5ccccc5C#N)CC4)c(=O)c3c2C1    melting point           190
2  CCOC(=O)N1Cc2sc3ncn(CCN4CCN(c5ccccc5C)CC4)c(=O)c3c2C1    melting point           152
3  CCOC(=O)N1Cc2sc3ncn(CCN4CCN(c5cccc6c5CCC6)CC4)c(=O)c3c2C1    melting point           149
4  CCOC(=O)N1Cc2sc3ncn(CCN4CCN(c5ncccn5)CC4)c(=O)c3c2C1    melting point           166
5  CCOC(=O)N1Cc2sc3ncn(CCN4CCN(c5ccccc5Cl)CC4)c(=O)c3c2C1    melting point           172
